Catalogue of inhibition at 1000 µg/mL values
molecular target: α-D-galactosidase (Coffea arabica); construct: purchased Sigma; experiment: Glycosidase inhibition: α-D-galactosidase; assay type: biochemical, Green coffee beans (Coffea sp.); conditions: 1 mg/ml; read-out: % inhibition, α-galactosidase
Sequence (Q42656 16-378): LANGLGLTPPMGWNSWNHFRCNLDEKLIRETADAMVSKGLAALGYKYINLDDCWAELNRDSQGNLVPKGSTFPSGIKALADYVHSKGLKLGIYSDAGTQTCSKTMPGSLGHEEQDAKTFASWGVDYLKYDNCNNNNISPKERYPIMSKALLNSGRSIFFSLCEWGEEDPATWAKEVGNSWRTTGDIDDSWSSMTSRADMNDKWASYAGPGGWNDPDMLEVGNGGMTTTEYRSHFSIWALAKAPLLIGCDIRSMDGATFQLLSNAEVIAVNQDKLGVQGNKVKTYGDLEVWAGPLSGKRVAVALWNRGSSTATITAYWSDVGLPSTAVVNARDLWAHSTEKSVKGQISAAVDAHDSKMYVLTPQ
assayMetric: inhibition at 1000 µg/mL

- molecule: "O[C@@H]1[C@@H]2[C@@H](O)[C@H](O)[C@@H](O)CN2C[C@@H]1O [Compound 44, 2-β-hydroxycastanospermine]"
  assayMetric: "inhibition at 1000 µg/mL"
  readoutValue: "-4%"
- molecule: "OCC1N[C@H](CO)[C@@H](O)[C@@H]1O (stereo partly shown) [DMDP]"
  assayMetric: "inhibition at 1000 µg/mL"
  readoutValue: "-3%"
- molecule: "O[C@@H]1[C@@H]2[C@@H](O)[C@H](O)[C@H](O)CN2C[C@H]1O [Compound 35, 2-α-hydroxy-6-epi-castanospermine]"
  assayMetric: "inhibition at 1000 µg/mL"
  readoutValue: "-5%"
- molecule: "COc1cc([C@H]2N[C@H](CO)[C@@H](O)[C@@H]2O)ccc1O [Compound 65, PLB2]"
  assayMetric: "inhibition at 1000 µg/mL"
  readoutValue: "4%"
